- System: HT55 (Colorectal Carcinoma)
- METHOD_SUMMARY: combination Emax (second highest fraction inhibited in the dose matrix, 72 h); higher = more inhibition; extreme values may be limits of the assay
Record Y whenever combination Emax is at 0.5 or higher; record N when lower.

MOLECULE: COc1nnc2ccc(N3CCC(c4ccc(OCCN5CCN(C)C(=O)[C@H]5C)cc4)CC3)nn12 [AZD5153] + Cn1cnc2c(F)c(Nc3ccc(Br)cc3Cl)c(C(=O)NOCCO)cc21 [Selumetinib] (first compound max 1 µM, 7x7, partner max 10 µM)
CLASS_NAME: Y
--
MOLECULE: CC1(C)CCC(CN2CCN(c3ccc(C(=O)NS(=O)(=O)c4ccc(NCC5CCOCC5)c([N+](=O)[O-])c4)c(Oc4cnc5[nH]ccc5c4)c3)CC2)=C(c2ccc(Cl)cc2)C1 [Venetoclax] + Cc1cc2ncnn2cc1Nc1ncc2c(n1)n(C1CCOCC1)c(=O)n2C [AZD7648] (first compound max 1 µM, 7x7, partner max 10 µM)
CLASS_NAME: N
--
MOLECULE: CCN(CCO)CCCOc1ccc2c(Nc3cc(CC(=O)Nc4cccc(F)c4)[nH]n3)ncnc2c1 [AZD2811] + C=CCn1c(=O)c2cnc(Nc3ccc(N4CCN(C)CC4)cc3)nc2n1-c1cccc(C(C)(C)O)n1 [AZD1775] (first compound max 1 µM, partner max 1 µM)
CLASS_NAME: N
--
MOLECULE: Cn1cnc2c(F)c(Nc3ccc(Br)cc3Cl)c(C(=O)NOCCO)cc21 [Selumetinib] + C[C@@H]1COCCN1C2=NC(=NC(=C2)C3(CC3)[S@](=N)(=O)C)C4=C5C=CNC5=NC=C4 [AZD6738] (first compound max 10 µM, 7x7, partner max 10 µM)
CLASS_NAME: Y
--
MOLECULE: C=CCn1c(=O)c2cnc(Nc3ccc(N4CCN(C)CC4)cc3)nc2n1-c1cccc(C(C)(C)O)n1 [AZD1775] + O=C(c1cc(Cc2n[nH]c(=O)c3ccccc23)ccc1F)N1CCN(C(=O)C2CC2)CC1 [Olaparib] (first compound max 1 µM, partner max 10 µM)
CLASS_NAME: N

----------
- Tested on: NB13 (Neuroblastoma)
- METHOD_SUMMARY: combination Emax (second highest fraction inhibited in the dose matrix, 72 h); higher = more inhibition; extreme values may be limits of the assay

COMPOUND: Cc1c2c(nn1C)CSCc1cc(n(C)n1)CSc1cc(c3ccccc3c1)OCCCc1c(C(=O)O)n(C)c3c-2c(Cl)ccc13 [AZD5991] + CN(C)CCCOc1ccc(-c2ccc3ncc4c(c3c2)n(C2CCOCC2)c(=O)n4C)cn1 [AZD0156] (first compound max 1 µM, 7x7, partner max 1 µM)
combination Emax: 0.282
//
COMPOUND: CS(=O)(=O)CCNCc1ccc(-c2ccc3ncnc(Nc4ccc(OCc5cccc(F)c5)c(Cl)c4)c3c2)o1 [Lapatinib] + Cn1cnc2c(F)c(Nc3ccc(Br)cc3Cl)c(C(=O)NOCCO)cc21 [Selumetinib] (first compound max 10 µM, 7x7, partner max 10 µM)
combination Emax: 0.521
//
COMPOUND: Cn1cnc2c(F)c(Nc3ccc(Br)cc3Cl)c(C(=O)NOCCO)cc21 [Selumetinib] + C[C@@H]1COCCN1C2=NC(=NC(=C2)C3(CC3)[S@](=N)(=O)C)C4=C5C=CNC5=NC=C4 [AZD6738] (first compound max 10 µM, 7x7, partner max 10 µM)
combination Emax: 0.855
//
COMPOUND: CN(CCO)CC[C@H](CSc1ccccc1)Nc1ccc(S(=O)(=O)NC(=O)c2ccc(N3CCC([C@@H](O)c4ccccc4-c4ccc(Cl)cc4)CC3)cc2)cc1S(=O)(=O)C(F)(F)F [AZD4320] + CCN(CCO)CCCOc1ccc2c(Nc3cc(CC(=O)Nc4cccc(F)c4)[nH]n3)ncnc2c1 [AZD2811] (first compound max 1 µM, 7x7, partner max 1 µM)
combination Emax: 1
